Would you kindly list EC50 for each of these molecules?
- Test system: human blood (whole blood clot lysis, tPA)
- Method Description: Thromboelastometry (ROTEM, modified in-tem with tPA): whole blood clot formation and lysis, human blood
- Measurement Conditions: Homo sapiens, read-out: EC50LT (effective concentration to delay lysis time by 50%)

Task: Could you share which EC50 value was measured for O=C(O)c1ccc(C(=O)Oc2ccc(S(=O)(=O)C3(C(=O)NO)CCC4(CCNCC4)C3)cc2)cc1 (stereo not shown) ?
Output: < 1000 nM

Task: Could you share which EC50 value was measured for CNC(=O)c1ccc(C(=O)Oc2ccc(S(=O)(=O)C3(C(=O)NO)CCC4(CCNCC4)C3)cc2)cc1F (stereo not shown) ?
Output: 1000 to 10000 nM

Task: Could you share which EC50 value was measured for O=C(NO)C1(S(=O)(=O)c2ccc(Oc3ccc(C(F)(F)F)cc3)cc2)CCC2(CCNCC2)C1 (stereo not shown) ?
Output: < 1000 nM

Task: Could you share which EC50 value was measured for COC(=O)c1ccc(Oc2ccc(S(=O)(=O)C3(C(=O)NO)CCC4(CCNCC4)C3)cc2)cc1 (stereo not shown) ?
Output: > 25000 nM

----------
- System: human blood (whole blood clot lysis, tPA)
- Method Description: Thromboelastometry (ROTEM, modified in-tem with tPA): whole blood clot formation and lysis, human blood
- Measurement Conditions: Homo sapiens, read-out: EC50LT (effective concentration to delay lysis time by 50%)
Observation Type: EC50

Task: Could you share which EC50 value was measured for COc1ccc(Oc2ccc(S(=O)(=O)C3(C(=O)NO)CCC4(CCN(Cc5ccccc5)CC4)C3)cc2)cc1 (stereo not shown) ?
Output: 1 to 10 µM

Task: Could you share which EC50 value was measured for COc1ccc(Oc2ccc(S(=O)(=O)C3(C(=O)NO)CCC4(CCNCC4)C3)cc2Cl)cc1 (stereo not shown) ?
Output: < 1 µM

Task: Could you share which EC50 value was measured for COc1ccc(S(=O)(=O)c2ccc(S(=O)(=O)C3(C(=O)NO)CCC4(CCNCC4)C3)cc2)cc1 (stereo not shown) ?
Output: 1 to 10 µM

Task: Could you share which EC50 value was measured for NC(=O)c1ccc(Oc2ccc(S(=O)(=O)C3(C(=O)NO)CCC4(CCNCC4)C3)cc2)cc1 (stereo not shown) ?
Output: > 25 µM

----------
- System: human blood (whole blood clot lysis, tPA)
- Method Description: Thromboelastometry (ROTEM, modified in-tem with tPA): whole blood clot formation and lysis, human blood
- Measurement Conditions: Homo sapiens, read-out: EC50LT (effective concentration to delay lysis time by 50%)
pEC50: −log10 of the molar value.
Observation Type: pEC50

Task: Could you share which pEC50 value was measured for O=C(O)c1ccc(CNc2ccc(S(=O)(=O)C3(C(=O)NO)CCC4(CCNCC4)C3)cc2)cc1 (stereo not shown) ?
Output: > 6.00

Task: Could you share which pEC50 value was measured for COC(=O)c1ccc(Oc2ccc(S(=O)(=O)C3(C(=O)NO)CCC4(CCNCC4)C3)cc2)c(F)c1 (stereo not shown) ?
Output: < 4.60

Task: Could you share which pEC50 value was measured for O=C(NO)C1(S(=O)(=O)c2ccc(NCc3ccccc3)cc2)CCC2(CCNCC2)C1 (stereo not shown) ?
Output: > 6.00

Task: Could you share which pEC50 value was measured for COc1ccc(Oc2ccc(S(=O)(=O)C3(C(=O)NO)CCC4(CCN(c5ccccc5)CC4)C3)cc2)cc1 (stereo not shown) ?
Output: < 4.60

Task: Could you share which pEC50 value was measured for O=C(NO)C1(S(=O)(=O)c2ccc(Oc3ccc(Cl)cc3)cc2)CCC2(CCNCC2)C1 (stereo not shown) ?
Output: < 4.60

Task: Could you share which pEC50 value was measured for CNC(=O)c1ccc(CNc2ccc(S(=O)(=O)C3(C(=O)NO)CCC4(CCNCC4)C3)cc2)cc1 (stereo not shown) ?
Output: > 6.00

Task: Could you share which pEC50 value was measured for O=C(NO)C1(S(=O)(=O)c2ccc(OCc3cn[nH]c3)cc2)CCC2(CCNCC2)C1 (stereo not shown) ?
Output: > 6.00

----------
Would you kindly list EC50 for each of these molecules?
- System: human blood (whole blood clot lysis, tPA)
- Method Description: Thromboelastometry (ROTEM, modified in-tem with tPA): whole blood clot formation and lysis, human blood
- Measurement Conditions: read-out: EC50LT (effective concentration to delay lysis time by 50%); human blood, tPA, assayed concentrations 1000-0.2 μM

Task: Could you share which EC50 value was measured for CNC(=O)c1ccc(Oc2ccc(S(=O)(=O)C3(C(=O)NO)CCC4(CCNCC4)C3)cc2)cc1 (centres unmarked) [Example 1-133] ?
Output: < 1000 nM

Task: Could you share which EC50 value was measured for CN(C)C(=O)c1ccc(Oc2ccc(S(=O)(=O)C3(C(=O)NO)CCC4(CCNCC4)C3)cc2)cc1 (centres unmarked) ?
Output: 1000 to 10000 nM

Task: Could you share which EC50 value was measured for O=C(NO)C1(S(=O)(=O)c2ccccc2NC2CCCCC2)CCC2(CCNCC2)C1 (centres unmarked) ?
Output: < 1000 nM

Task: Could you share which EC50 value was measured for CNC(=O)c1ccc(Oc2ccc(S(=O)(=O)C3(C(=O)NO)CCC4(CCNCC4)C3)cc2)cc1 (centres unmarked) [Example 1-134] ?
Output: < 1000 nM

Task: Could you share which EC50 value was measured for COc1ccc(Oc2ccc(S(=O)(=O)C3(C(=O)NO)CCC4(CCN(Cc5cnc[nH]5)CC4)C3)cc2)cc1 (centres unmarked) ?
Output: > 25000 nM

----------
- System: human blood (whole blood clot lysis, tPA)
- Method Description: Thromboelastometry (ROTEM, modified in-tem with tPA): whole blood clot formation and lysis, human blood
- Measurement Conditions: Homo sapiens, read-out: EC50LT (effective concentration to delay lysis time by 50%)
Would you kindly list EC50 for each of these molecules?

Task: Could you share which EC50 value was measured for O=C(O)C1CCC(Nc2ccc(S(=O)(=O)C3(C(=O)NO)CCC4(CCNCC4)C3)cc2)CC1 (stereo not drawn) ?
Output: < 1 µM

Task: Could you share which EC50 value was measured for O=C(NO)C1(S(=O)(=O)c2ccc(OCc3ccccc3)c(Cl)c2)CCC2(CCNCC2)C1 (stereo not drawn) ?
Output: > 25 µM

Task: Could you share which EC50 value was measured for CNC(=O)c1ccc(Oc2cccc(S(=O)(=O)C3(C(=O)NO)CCC4(CCNCC4)C3)c2)cc1 (stereo not drawn) ?
Output: > 25 µM

Task: Could you share which EC50 value was measured for O=C(NO)C1(S(=O)(=O)c2ccc(Oc3ccc(OC(F)(F)F)c(Cl)c3)cc2)CCC2(CCNCC2)C1 (stereo not drawn) ?
Output: 10 to 25 µM

Task: Could you share which EC50 value was measured for O=C(O)c1ccc(Oc2cccc(S(=O)(=O)C3(C(=O)NO)CCC4(CCNCC4)C3)c2)cc1 (stereo not drawn) ?
Output: < 1 µM

Task: Could you share which EC50 value was measured for COC1CCC(Nc2ccc(S(=O)(=O)C3(C(=O)NO)CCC4(CCNCC4)C3)cc2)CC1 (stereo not drawn) ?
Output: 1 to 10 µM

Task: Could you share which EC50 value was measured for COc1ccc(Oc2ccc(S(=O)(=O)C3(C(=O)NO)CCC4(CCN(CC(=O)O)CC4)C3)cc2)cc1 (stereo not drawn) ?
Output: 1 to 10 µM

Task: Could you share which EC50 value was measured for O=C(NO)C1(S(=O)(=O)c2ccc(O)c(Cl)c2)CCC2(CCNCC2)C1 (stereo not drawn) ?
Output: 1 to 10 µM

Task: Could you share which EC50 value was measured for COc1ccc(Oc2ccc(S(=O)(=O)C3(C(=O)NO)CCC4(CCCN(C)C4)CC3)cc2)cc1 (stereo not drawn) ?
Output: 10 to 25 µM

Task: Could you share which EC50 value was measured for COc1ccc(C(=O)Oc2ccc(S(=O)(=O)C3(C(=O)NO)CCC4(CCNCC4)C3)cc2Cl)cc1 (stereo not drawn) ?
Output: 1 to 10 µM

Task: Could you share which EC50 value was measured for O=C(NO)C1(S(=O)(=O)c2ccc(NC3CCOCC3)cc2)CCC2(CCNCC2)C1 (stereo not drawn) ?
Output: < 1 µM

Task: Could you share which EC50 value was measured for CNC(=O)c1ccc(Oc2ccc(S(=O)(=O)C3(C(=O)NO)CCC4(CCNCC4)C3)cc2)c(F)c1 (stereo not drawn) ?
Output: > 25 µM

Task: Could you share which EC50 value was measured for O=C(NO)C1(S(=O)(=O)c2cccc(Oc3ccc(OC(F)(F)F)cc3)c2)CCC2(CCNCC2)C1 (stereo not drawn) ?
Output: < 1 µM

Task: Could you share which EC50 value was measured for CNC(=O)N1CCC2(CC1)CCC(C(=O)NO)(S(=O)(=O)c1ccc(Oc3ccc(OC)cc3)cc1)C2 (stereo not drawn) ?
Output: > 25 µM

Task: Could you share which EC50 value was measured for O=C(NO)C1(S(=O)(=O)c2ccccc2NC2CCCCC2)CCC2(CCNCC2)C1 (stereo not drawn) ?
Output: < 1 µM

----------
- Test system: human blood (whole blood clot lysis, tPA)
- Method Description: Thromboelastometry (ROTEM, modified in-tem with tPA): whole blood clot formation and lysis, human blood
- Measurement Conditions: Homo sapiens, read-out: EC50LT (effective concentration to delay lysis time by 50%)
pEC50: −log10 of the molar value.
Observation Type: pEC50

Task: Could you share which pEC50 value was measured for O=C(NO)C1(S(=O)(=O)c2ccc(O)cc2)CCC2(CCNCC2)C1 (stereo not shown) ?
Output: < 4.60

Task: Could you share which pEC50 value was measured for O=C(O)c1ccc(Oc2ccc(S(=O)(=O)C3(C(=O)NO)CCC4(CCNCC4)C3)cc2)c(F)c1 (stereo not shown) ?
Output: < 4.60

Task: Could you share which pEC50 value was measured for O=C(NO)C1(S(=O)(=O)c2ccc(Oc3ccc(OC(F)(F)F)c(F)c3)cc2)CCC2(CCNCC2)C1 (stereo not shown) ?
Output: > 6.00

Task: Could you share which pEC50 value was measured for O=C(Oc1ccc(S(=O)(=O)C2(C(=O)NO)CCC3(CCNCC3)C2)cc1Cl)c1ccc(OC(F)(F)F)cc1 (stereo not shown) ?
Output: < 4.60

Task: Could you share which pEC50 value was measured for O=C(NO)C1(S(=O)(=O)c2ccc(NCC3CCC(F)(F)CC3)cc2)CCC2(CCNCC2)C1 (stereo not shown) ?
Output: > 6.00

Task: Could you share which pEC50 value was measured for COc1ccc(Oc2ccc(S(=O)(=O)C3(C(=O)NO)CCC4(CCN(Cc5ccncc5)CC4)C3)cc2)cc1 (stereo not shown) ?
Output: < 4.60

Task: Could you share which pEC50 value was measured for CC(C)Oc1ccc(Oc2ccc(S(=O)(=O)C3(C(=O)NO)CCC4(CCNCC4)C3)cc2)cc1 (stereo not shown) ?
Output: 5.00 to 6.00

# credit: patent US9440989B2
